- Target or test system: T1, human tissue factor (TF) on human bladder carcinoma cells J82 (human, UniProt P13726 33-295)
- T1 construct: whole, on cells; also called the antigen; J82 cells
- T1 sequence (P13726 33-295): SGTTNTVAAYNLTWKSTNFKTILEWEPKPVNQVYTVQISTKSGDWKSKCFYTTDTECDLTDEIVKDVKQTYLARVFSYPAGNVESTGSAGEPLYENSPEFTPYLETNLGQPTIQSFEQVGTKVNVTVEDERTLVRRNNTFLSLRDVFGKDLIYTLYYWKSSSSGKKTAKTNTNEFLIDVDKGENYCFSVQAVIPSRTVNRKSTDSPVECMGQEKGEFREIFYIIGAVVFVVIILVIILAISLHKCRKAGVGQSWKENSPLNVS
- Assay comment: cell ELISA on paraformaldehyde-fixed J82 cells; AP-conjugated goat anti-human IgGγ; absorbance 405/655 nm
Quantity measured: binding result

{"columns": ["Binder", "Observed"],
 "data": [
  ["H chain chimeric/L chain humanized version b2 antibody (antibody, IgG4, V domains shown, H chain V region is that of mouse ATR-5; also called ch-b2) VH: EVQLQQSGTNLVRPGALVKLSCKGSGFNIKDYYMHWVKQRPEQGLEWIGGNDPANGHSMYDPKFQGKASITADTSSNTAYLQLSSLTSEDTAVYFCARDSGYAMDYWGQGTSVTVSS VL: DIQMTQSPSSLSASVGDRVTITCKASQDIKSFLSWYQQKPEKAPKSLIYYATSLADGVPSRFSGSGSGTDYTLTISSLQPEDFATYYCLQHGESPYTFGGGTKVEIK", "binds"],
  ["H chain humanized version j/L chain chimeric antibody (antibody, IgG4, V domains shown, L chain V region is that of mouse ATR-5; also called j-ch) VH: QVQLLESGAVLARPGTSVKISCKASGFNIKDYYMHWVKQRPGQGLEWIGGNDPANGHSMYDPKFQGRVTFTADTSANTAYMELRSLRSADTAVYYCARDSGYAMDYWGQGTLVTVSS VL: DIKMTQSPSSMYASLGERVTITCKASQDIKSFLSWYQQKPWKSPKTLIYYATSLADGVPSRFSGSGSGQDYSLTINNLESDDTATYYCLQHGESPYTFGGGTKLEIK", "binds"],
  ["H chain humanized version d/L chain humanized version b antibody (antibody, IgG4, V domains shown, also called d-b) VH: QVQLLESGAVLARPGTSVKISCKASGFNIKDYYMHWVKQRPGQGLEWIGGNDPANGHSMYDPKFQGRVTITADESTSTAYMELSSLRSEDSAVYFCARDSGYAMDYWGQGTLVTVSS VL: DIQMTQSPSSLSASVGDRVTITCKASQDIKSFLSWYQQKPGKAPKLLIYYATSLADGVPSRFSGSGSGTDYTLTISSLQPEDFATYYCLQHGESPYTFGGGTKVEIK", "binds"]
]}
